system: Colorectal carcinoma HCT116 cells; experiment: HCT116 + ETR1 cell death assay (MTT, 72 hours); assay type: cell-based; conditions: with HGS ETR1 40 ng/ml
pEC50: −log10 of the molar value.
Value kind: pEC50

GET /value?item= "CN[C@@H](C)C(=O)N[C@H](C(=O)N1CCC[C@H]1CN(CCc1ccccc1)C(=O)c1ccc(-c2ccc(C(=O)N(CCc3ccccc3)C[C@@H]3CCCN3C(=O)[C@@H](NC(=O)[C@H](C)NC)C3CC3)cc2)cc1)C1CC1" &field=pEC50 returns > 7.00

GET /value?item= "CN[C@@H](C)C(=O)N[C@H](C(=O)N1CCC[C@H]1CN(CCc1ccc(F)cc1)C(=O)c1ccc(-c2ccc(C(=O)N(CCc3ccc(F)cc3)C[C@@H]3CCCN3C(=O)[C@@H](NC(=O)[C@H](C)NC)C3CCCCC3)cc2)cc1)C1CCCCC1" &field=pEC50 returns > 7.00

All values here come from patent US20110171171A1.
